B1: library; a variant is named by its letters at N, in order (parent)
chain: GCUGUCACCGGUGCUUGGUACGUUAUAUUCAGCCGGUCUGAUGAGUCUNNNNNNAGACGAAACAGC

variants of: B1; assay: normalized RNA/DNA level without ligand (relative to sTRSVctl = 100) (log10 (% of sTRSVctl)); HEK293T overexpressing SLC46A1; higher = less ribozyme self-cleavage, higher mRNA level; conditions: without (6R,S)-folinic acid; ligand present: no
endpoint_name: normalized RNA/DNA level without ligand (log10)
Reply with just the number.

Ask: Can you share its normalized RNA/DNA level without ligand (log10)? I mean this variant: CACGAA
Result: 1.96

Ask: Field entry: UCCUCA
Result: 2.05

Ask: Please answer likewise for UCGGUU
Result: 2.03

Ask: Now try GAGGGA .
Result: 1.97

Ask: Now the same for GUCUCC
Result: 2.03

Ask: Repeat with ACAAAA
Result: 1.97

Ask: And for CCUGGG ?
Result: 2.01

Ask: Request: AGUAAA
Result: 1.95

Ask: // next record CUAUAA
Result: 1.98

Ask: Now this one: CUCCAA
Result: 2.03

Ask: Do the same for CGCCAA please
Result: 1.97

Ask: Similarly, AACUCA ?
Result: 2.03

Ask: Proceed to ACAGAC
Result: 2.01

Ask: Now the variant CGCAAC
Result: 2.03

Ask: Same question, GAUGGC this time
Result: 1.97

Ask: Check CACCGA too.
Result: 2.02

Ask: Proceed to CGUUUG
Result: 2
